Task for the reader: assign each of the following compounds its reported TGI.
system: RXF 393 renal; assay: NCI tumour cell line growth inhibition, 48 h

CCS(=O)(=O)CCn1c(=O)c2c(ncn2C)n(C)c1=O
> 100 µM
CCN(CC)C(=S)SCN1C(=O)c2ccccc2S1(=O)=O
> 80.1 µM

Kindly review the next compound as well.
// query Can you share its TGI? I mean this compound: CC1=C(O)/C(=C/C(C)CCC/C(C)=C/C=C/C(C)CCCc2ccoc2)OC1=O (stereo not drawn)
// result > 100 µM

====

tested on: M14 melanoma; experiment: NCI tumour cell line growth inhibition, 48 h
Property Label: TGI

Cc1cccc2c1CCC21OC(=O)c2c1ccc1ccccc21 (stereo unspecified)
64.8 µM
O=C(O)CCC(N=NNc1ccc(-c2nc3ccccc3[nH]2)cc1)C(=O)O (stereo unspecified)
> 100 µM
O=C(NNC(=S)NCc1ccccc1)c1csc(NC(=S)NC2CCCCC2)n1
> 100 µM

Quick request: TGI for each listed item, please.
1. O=C1OC(=O)C2CCCC3CCCC1C32 (stereo unspecified)
2. [N-]=[N+]=NCCCn1c2c(c3ccc([N+](=O)[O-])cc3c1=O)C(=O)c1cc(F)ccc1-2
3. CC1(C)NCCC[C@]2(C)[C@H]3CC[C@@H]4[C@H]5[C@H](C(=O)/C=C/c6ccccn6)CC[C@]5(CO)CC[C@@]4(C)[C@]3(C)CC[C@@H]12
4. CN(C(=O)C1=CCC2(CC1)OCCO2)c1ccccc1I
5. CCn1c(-c2nonc2N)nc2c(C#CC(C)(C)O)ncc(OC[C@H]3CCCNC3)c21

// result
["> 100 µM", "11.1 µM", "3.56 µM", "> 100 µM", "37.7 µM"]

For each listed entry, give its TGI.
1. Cc1nc2[nH]ncn2c(=O)c1CCCl
2. Clc1ccc(C[P+]2(c3ccccc3)CCCCC2)cc1
3. C=C(C(=C)N1N=NC2C3CCC(C3)C21)N1N=NC2C3CCC(C3)C21 (stereo unspecified)

// result
1. > 10 µM
2. > 100 µM
3. > 100 µM

Each molecule below has a reported value. Please supply its TGI.
1. O=C(CCn1[nH]c(=O)c(Cl)c(Cl)c1=O)NNC(=O)C[n+]1ccccc1
2. O=C(CC(=O)c1cccc2ccccc12)C(=O)NC1C2CC3CC(C2)CC1C3 (stereo unspecified)
3. O=C(N/N=C/c1ccc(O)cc1O)c1cccc(Nc2ccnc(C(F)(F)F)c2)c1
4. CC1(N)CCN(c2cnc(-c3cccc(Cl)c3Cl)c(N)n2)CC1

// result
1: > 100 µM; 2: > 100 µM; 3: 8.5 µM; 4: 33.2 µM
